Hello, the source for this data is the supplement of paper PMC8728848, in case you need it.

target: Neu5Gc(a2-3)Gal(b1-3)[Fuc(a1-4)]GlcNAc; experiment: glycan array binding signal (z-score within array); higher = stronger binding; conditions: glycan notation: IUPAC condensed, linker removed
About 410 targets per protein were measured; listed, in parts, are those with the strongest signals and a random draw of the rest.
Grouping key: glycan array binding signal (z-score). Bins: low class: < -0.3; middle class: ≥ -0.3 and < -0.1; high class: ≥ -0.1

{"binder": "CLEC9a (Mus musculus), Q8BRU4 (protein) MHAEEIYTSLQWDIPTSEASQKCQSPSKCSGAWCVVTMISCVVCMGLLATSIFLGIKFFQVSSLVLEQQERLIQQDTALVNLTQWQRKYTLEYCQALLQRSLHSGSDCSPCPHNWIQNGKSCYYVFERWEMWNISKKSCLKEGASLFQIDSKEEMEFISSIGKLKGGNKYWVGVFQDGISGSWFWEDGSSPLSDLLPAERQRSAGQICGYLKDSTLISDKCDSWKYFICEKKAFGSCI", "class_name": "low class"}
{"binder": "AICL (Homo sapiens), Q92478 (protein) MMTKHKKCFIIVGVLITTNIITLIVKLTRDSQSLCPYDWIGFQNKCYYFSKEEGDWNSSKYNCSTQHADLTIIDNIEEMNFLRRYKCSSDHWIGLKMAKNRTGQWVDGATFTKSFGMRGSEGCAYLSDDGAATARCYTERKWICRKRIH", "class_name": "low class"}
{"binder": "STA (Solanum tuberosum), Q9S8M0 (protein) NASPPSPSPLPYPQCGMKKGGGKCIKTGECCSIWGWCGTTNAYCSPGYCQKQCPGPYPEGRCGWQANGKSCPTGTGQCCSNGGWCGTTSDYCASKNCQSQCKLPSPPPPPPPPSPPPPSPPSPPPPSPPPPPPPSPPPPSPPPPSPSPPPPPASPPPPPPALPYPQCGIKKGGGKCIKTGECCSIWGWCGTTNAYCSPGYCQKQCPGPYPEGRCGWQANGKSCPTGTGHCCSNAGWCGTTSDYCAPVNCQAQCNTTTLTSPIKNRMRGIESFMLNVV", "class_name": "low class"}
{"binder": "CD34 (Homo sapiens), P28906 (protein) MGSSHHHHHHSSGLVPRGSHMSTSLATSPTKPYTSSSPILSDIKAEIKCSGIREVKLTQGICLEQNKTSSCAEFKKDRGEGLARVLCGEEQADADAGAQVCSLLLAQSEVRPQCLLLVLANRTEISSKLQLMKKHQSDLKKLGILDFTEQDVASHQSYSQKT", "class_name": "high class"}
{"binder": "M6PR (Bos taurus), P11456 (protein) MMSPLHSSWRTGLLLLLLFSVAVRESWQTEEKTCDLVGEKGKESEKELALLKRLTPLFNKSFESTVGQSPDMYSYVFRVCREAGNHSSGAGLVQINKSNGKETVVGRFNETQIFNGSNWIMLIYKGGDEYDNHCGREQRRAVVMISCNRHTLADNFN", "class_name": "low class"}

Hi, small favor: classify CREG (Mus musculus), O88668 (protein) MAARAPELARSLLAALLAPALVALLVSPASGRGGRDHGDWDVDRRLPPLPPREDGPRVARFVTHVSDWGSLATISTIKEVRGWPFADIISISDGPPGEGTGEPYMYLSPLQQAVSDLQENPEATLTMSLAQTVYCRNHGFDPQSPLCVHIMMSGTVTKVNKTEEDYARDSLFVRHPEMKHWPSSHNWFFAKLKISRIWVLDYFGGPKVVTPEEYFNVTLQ by its glycan array binding signal (z-score) when you get a moment.
middle class

Hi, small favor: classify BDCA2 ex-domain (Homo sapiens) (protein) MASHHHHHHIEGRGLNDIFEAQKIEWHESLVPRGSCPTPWTSFQSSCYFISTGMQSWTKSQKNCSVMGADLVVINTREEQDFIIQNLKRNSSYFLGLSDPGGRRHWQWVDQTPYNENVTFWHSGEPNNLDERCAIINFRSSEEWGWNDIHCHVPQKSICKMKKIY by its glycan array binding signal (z-score) when you get a moment.
low class

Hi, small favor: classify CSA (Cytisus scoparius), P29257 (protein) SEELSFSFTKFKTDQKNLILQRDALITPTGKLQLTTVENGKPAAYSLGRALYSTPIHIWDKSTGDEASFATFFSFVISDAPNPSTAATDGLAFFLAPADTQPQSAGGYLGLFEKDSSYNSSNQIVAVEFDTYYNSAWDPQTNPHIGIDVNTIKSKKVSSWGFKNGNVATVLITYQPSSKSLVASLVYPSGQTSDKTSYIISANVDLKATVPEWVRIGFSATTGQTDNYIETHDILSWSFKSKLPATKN by its glycan array binding signal (z-score) when you get a moment.
middle class

Hi, small favor: classify MCL (Mus musculus), Q9Z2H6 (protein) MWLEESQMKSKGTRHPQLIPCVFAVVSISFLSACFISTCLVTHHYFLRWTRGSVVKLSDYHTRVTCIREEPQPGATGGTWTCCPVSWRAFQSNCYFPLNDNQTWHESERNCSGMSSHLVTINTEAEQNFVTQLLDKRFSYFLGLADENVEGQWQWVDKTPFNPHTVFWEKGESNDFMEEDCVVLVHVHEKWVWNDFPCHFEVRRICKLPGITFNWKPSK by its glycan array binding signal (z-score) when you get a moment.
low class

Hi, small favor: classify VLRB.aGPA.23-GCN4-biotin (Petromyzon marinus) (protein) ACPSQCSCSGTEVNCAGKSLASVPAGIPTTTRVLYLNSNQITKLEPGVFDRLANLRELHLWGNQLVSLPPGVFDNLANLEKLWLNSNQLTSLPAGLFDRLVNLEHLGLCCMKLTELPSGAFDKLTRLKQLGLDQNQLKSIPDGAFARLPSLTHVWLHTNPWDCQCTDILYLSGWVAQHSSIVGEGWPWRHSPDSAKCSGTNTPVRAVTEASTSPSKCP by its glycan array binding signal (z-score) when you get a moment.
high class

Hi, small favor: classify SP15308F-bth-333-19-333 (Bacteroides thetaiotaomicron) (protein) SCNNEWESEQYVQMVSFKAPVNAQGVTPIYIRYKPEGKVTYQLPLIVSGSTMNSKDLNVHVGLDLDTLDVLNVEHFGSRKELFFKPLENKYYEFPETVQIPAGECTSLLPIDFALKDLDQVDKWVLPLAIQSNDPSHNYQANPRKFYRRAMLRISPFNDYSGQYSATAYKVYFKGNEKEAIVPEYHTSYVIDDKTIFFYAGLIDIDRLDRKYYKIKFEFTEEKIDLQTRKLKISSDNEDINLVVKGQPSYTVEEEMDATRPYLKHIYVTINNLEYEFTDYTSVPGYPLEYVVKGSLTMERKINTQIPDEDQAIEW by its glycan array binding signal (z-score) when you get a moment.
high class
